Source listed as paper PMC7036753.

Hi there, I'd appreciate the recorded MIC for every entry that follows.
system: E. faecium ATCC 700221; format: cell-based, Enterococcus faecium; conditions: ATCC 700221, 18 h
Text: […]
Peptide text beside a SMILES is read from it. * marks the point of attachment. Myristoyl = CCCCCCCCCCCCCC(=O)*; Lauroyl = CCCCCCCCCCCC(=O)*; Octanoyl = CCCCCCCC(=O)*; X1 = O=C(/C=C/c1ccccc1)*; Hexanoyl = CCCCCC(=O)*; Butyryl = CCCC(=O)*
# number only, unit µg/mL dropped from output

Query: Please report MIC for the following compound: CCCCCCCCCCCC(=O)N[C@@H](CCCCN)C(=O)N[C@@H](CCCNC(=N)N)C(=O)N[C@H](C(=O)N[C@H](C(=O)N[C@@H](CCC(N)=O)C(=O)N[C@@H](CCCNC(=N)N)C(=O)N[C@H](C(=O)N[C@@H](CCCCN)C(=O)N[C@@H](CC(=O)O)C(=O)N[C@@H](Cc1ccccc1)C(=O)N[C@@H](CC(C)C)C(=O)N[C@@H](CCCNC(=N)N)C(N)=O)[C@@H](C)CC)C(C)C)[C@@H](C)CC [VI, C12-KR12-NH2] (Lauroyl-KRIVQRIKDFLR-NH2)
Reply: 4

Query: Quick one: give measured MIC for CCCCCCCCCCCCCC(=O)N[C@@H](CCCCN)C(=O)N[C@@H](CCCNC(=N)N)C(=O)N[C@H](C(=O)N[C@H](C(=O)N[C@@H](CCC(N)=O)C(=O)N[C@@H](CCCNC(=N)N)C(=O)N[C@H](C(=O)N[C@@H](CCCCN)C(=O)N[C@@H](CC(=O)O)C(=O)N[C@@H](Cc1ccccc1)C(=O)N[C@@H](CC(C)C)C(=O)N[C@@H](CCCNC(=N)N)C(N)=O)[C@@H](C)CC)C(C)C)[C@@H](C)CC [VII, C14-KR12-NH2] (Myristoyl-KRIVQRIKDFLR-NH2)
Reply: 8

Query: For the compound CCCCCC(=O)N[C@@H](CCCCN)C(=O)N[C@@H](CCCNC(=N)N)C(=O)N[C@H](C(=O)N[C@H](C(=O)N[C@@H](CCC(N)=O)C(=O)N[C@@H](CCCNC(=N)N)C(=O)N[C@H](C(=O)N[C@@H](CCCCN)C(=O)N[C@@H](CC(=O)O)C(=O)N[C@@H](Cc1ccccc1)C(=O)N[C@@H](CC(C)C)C(=O)N[C@@H](CCCNC(=N)N)C(N)=O)[C@@H](C)CC)C(C)C)[C@@H](C)CC [III, C6-KR12-NH2] (Hexanoyl-KRIVQRIKDFLR-NH2) , give its measured MIC value.
Reply: 2

Query: Retrieve MIC measured for CC[C@H](C)[C@H](NC(=O)[C@H](CCCNC(=N)N)NC(=O)[C@H](CCC(N)=O)NC(=O)[C@@H](NC(=O)[C@@H](NC(=O)[C@H](CCCNC(=N)N)NC(=O)[C@H](CCCCN)NC(=O)/C=C/c1ccccc1)[C@@H](C)CC)C(C)C)C(=O)N[C@@H](CCCCN)C(=O)N[C@@H](CC(=O)O)C(=O)N[C@@H](Cc1ccccc1)C(=O)N[C@@H](CC(C)C)C(=O)N[C@@H](CCCNC(=N)N)C(N)=O [IX, trans-Cinnamic acid-KR12-NH2] (X1-KRIVQRIKDFLR-NH2) and print it.
Reply: 1

Query: # return recorded MIC for entry CCCC(=O)N[C@@H](CCCCN)C(=O)N[C@@H](CCCNC(=N)N)C(=O)N[C@H](C(=O)N[C@H](C(=O)N[C@@H](CCC(N)=O)C(=O)N[C@@H](CCCNC(=N)N)C(=O)N[C@H](C(=O)N[C@@H](CCCCN)C(=O)N[C@@H](CC(=O)O)C(=O)N[C@@H](Cc1ccccc1)C(=O)N[C@@H](CC(C)C)C(=O)N[C@@H](CCCNC(=N)N)C(N)=O)[C@@H](C)CC)C(C)C)[C@@H](C)CC [II, C4-KR12-NH2] (Butyryl-KRIVQRIKDFLR-NH2)
Reply: 4

Query: Provide one value: measured MIC of CCCCCCCC(=O)N[C@@H](CCCCN)C(=O)N[C@@H](CCCNC(=N)N)C(=O)N[C@H](C(=O)N[C@H](C(=O)N[C@@H](CCC(N)=O)C(=O)N[C@@H](CCCNC(=N)N)C(=O)N[C@H](C(=O)N[C@@H](CCCCN)C(=O)N[C@@H](CC(=O)O)C(=O)N[C@@H](Cc1ccccc1)C(=O)N[C@@H](CC(C)C)C(=O)N[C@@H](CCCNC(=N)N)C(N)=O)[C@@H](C)CC)C(C)C)[C@@H](C)CC [IV, C8-KR12-NH2] (Octanoyl-KRIVQRIKDFLR-NH2)
Reply: 1
